System: human PKK mRNA
Assay: Dose-dependent antisense inhibition of human PKK in HepaRG cells, 0.12-10.00 uM (Example 4)
Type: cell-based
Conditions: Table 32, 1.11 μM, electroporation, ~16 h
Strand notation (5' to 3'): a small letter for the sugar, then the base; units joined by * are phosphorothioate-linked, units joined directly phosphodiester-linked; [ ] holds rarer units or linkages, { } end groups; capitals alone tell only the bases. e = 2'-O-(2-methoxyethyl) (MOE); [5mC] = 5-methylcytosine; d = 2'-deoxy (DNA)

substance	percent inhibition of PKK at 1.11 μM
530992 (eG*eT*e[5mC]*eA*e[5mC]*dA*dT*dT*d[5mC]*dA*dA*dT*dT*d[5mC]*dT*eT*e[5mC]*eT*e[5mC]*e[5mC]; antisense) [compound 530992]	63%
530933 (antisense eT*eG*eG*eA*eG*dG*dT*dG*dA*dG*dT*d[5mC]*dT*d[5mC]*dT*eT*eG*eT*e[5mC]*eA) [compound 530933]	42%
530959 (antisense eT*e[5mC]*eA*eA*e[5mC]*dA*d[5mC]*dT*dG*d[5mC]*dT*dA*dA*d[5mC]*d[5mC]*eT*eT*eA*eG*eA) [compound 530959]	53%
